Where these numbers come from: the supplement of paper PMC10567573

B1: MTMR15 (parent)
chain: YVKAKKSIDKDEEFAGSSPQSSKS

- Variants of: B1
- ASSAY_INFO: protein stability index of a GFP-peptide fusion (GPS, HEK-293T) (PSI 1-6); higher = more stable;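 also: lentivirally expressed fusions sorted by FACS into six bins by GFP to DsRed ratio, PSI derived from sequencing read proportions per bin multiplied by bin number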
- EXPERIMENTAL_CONDITIONS: c terminus: a fixed tail appended
Decision: protein stability index >= 3 yields y, all other cases yield n.

{"CHANGES": "Y1F", "ASSIGNED_LABEL": "n"}

Answer whether protein stability index of G16K is greater than or equal to 3. y

Answer whether protein stability index of D9F is greater than or equal to 3. n

Answer whether protein stability index of V2P is greater than or equal to 3. y

Answer whether protein stability index of Q20R is greater than or equal to 3. n

Answer whether protein stability index of S22D is greater than or equal to 3. y

Answer whether protein stability index of A15K is greater than or equal to 3. n

Answer whether protein stability index of K5W is greater than or equal to 3. n

Answer whether protein stability index of S18F is greater than or equal to 3. n

Answer whether protein stability index of K3I is greater than or equal to 3. y

Answer whether protein stability index of K3R is greater than or equal to 3. n

Answer whether protein stability index of A15I is greater than or equal to 3. y

Answer whether protein stability index of G16D is greater than or equal to 3. y

Answer whether protein stability index of P19M is greater than or equal to 3. y

Answer whether protein stability index of S17W is greater than or equal to 3. y

Answer whether protein stability index of S22H is greater than or equal to 3. n

Answer whether protein stability index of I8G is greater than or equal to 3. y

Answer whether protein stability index of A15M is greater than or equal to 3. n
